From: patent US20250136581A1

assay: Rat pharmacokinetic experiment
Assay type: in vivo
recorded.conditions: rat, plasma, po; male SD rats, 1 mg/kg
measured.quantity: Cmax (ng/mL)
Entry rule: numbers only, all in ng/mL.

smiles.text	Cmax, ng/mL
Cc1nnn(-c2ccc(C(F)F)cc2)c1COc1ccc(N2CCN(C)C(=O)C2)nn1	637

-- ask Give the measured Cmax of `Cc1nnn(-c2ccc(C(F)F)cc2)c1COc1ccc(N2CCNC(=O)C2)cn1` .
-- reply 576

* * *

study.system: human α3β3γ2 receptors (Homo sapiens (Human), UniProt P18507+P34903)
assay: 3H-flunitrazepam competition binding, human α3β3γ2 GABAA receptor
recorded.conditions: HEK293 cell membranes, 1 nM 3H-flunitrazepam; read-out: Ki α3
Ki: recorded values
Entry rule: numbers only, all in µM.

-- ask Kindly state the measured Ki obtained for `Cc1ccc(-n2nnc(C)c2COc2ccc(N3CCN4CCNC(=O)[C@@H]4C3)nn2)cc1` with human α3β3γ2 receptors (Homo sapiens (Human), UniProt P18507+P34903).
-- reply 0.195

-- ask Same lookup for Cc1nnn(-c2ccc(C(F)F)cc2)c1COc1ccc(N2CC(=O)N3CCNCC3C2)nn1 (stereo not shown) , please.
-- reply 0.014

-- ask Same lookup for `O=C1CN(c2ccc(OCc3c(CO)nnn3-c3ccc(C(F)F)cc3)nn2)CCN1` , please.
-- reply 0.016

-- ask Same lookup for `CCNC(=O)C1CN(c2ccc(OCc3c(C)nnn3-c3ccc(C(F)F)cc3)nn2)C1` , please.
-- reply 0.0185
